measured.target: HiBiT-tagged MDM2 (Homo sapiens, UniProt Q00987)
Construct: expressed in transfected cells
Sequence (Q00987 whole entry): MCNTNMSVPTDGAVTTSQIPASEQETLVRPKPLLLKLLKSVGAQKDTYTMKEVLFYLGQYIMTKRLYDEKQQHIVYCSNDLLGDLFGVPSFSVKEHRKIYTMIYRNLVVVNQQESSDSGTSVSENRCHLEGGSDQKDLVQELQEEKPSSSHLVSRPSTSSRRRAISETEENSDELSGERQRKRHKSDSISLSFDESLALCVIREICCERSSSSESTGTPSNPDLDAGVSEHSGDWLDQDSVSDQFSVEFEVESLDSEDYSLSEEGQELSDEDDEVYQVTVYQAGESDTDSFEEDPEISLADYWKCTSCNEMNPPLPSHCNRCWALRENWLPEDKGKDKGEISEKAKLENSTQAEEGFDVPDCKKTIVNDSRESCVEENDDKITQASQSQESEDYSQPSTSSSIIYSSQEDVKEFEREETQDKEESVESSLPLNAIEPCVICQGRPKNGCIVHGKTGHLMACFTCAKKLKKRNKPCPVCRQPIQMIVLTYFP
method: MDM2 HiBit HEK293T degradation
Format: cell-based
measurement.setup: HEK293T cells stably expressing C-terminally HiBiT-tagged MDM2; 4 h; read-out: MDM2 HiBit HEK293T degradation 4 h: Average external-Abs DC50
Property: DC50; scope: individual compounds
result.type: DC50

COc1cc2c(cc1OC(C)C)C(c1ccc(Cl)cc1)N(C1CCC(N(C)CC3CCN(CCCCCCc4ccc5c(c4)n(C)c(=O)n5C4CCC(=O)NC4=O)CC3)CC1)C(=O)C2 (centres unmarked) [I-61] = > 1000 nM
Cn1c(=O)n(C2CCC(=O)NC2=O)c2ccc(CCN3CCN(CCCN4CCC(NC(=O)[C@@H]5NC6(CCC(C)(C)CC6)[C@@]6(C(=O)Nc7cc(Cl)ccc76)[C@H]5c5ccnc(Cl)c5F)CC4)CC3)cc21 (some centres unmarked) [I-20] = < 10 nM
Cn1c(=O)n(C2CCC(=O)NC2=O)c2ccc(CCCO[C@@H]3C[C@@H](C(=O)O)N(C(=O)[C@H]4CC[C@H](NC(=O)[C@@H]5NC6(CCCCC6)[C@@]6(C(=O)Nc7cc(Cl)ccc76)[C@H]5c5cccc(Cl)c5F)CC4)C3)cc21 (some centres unmarked) [I-136] = 10 to 100 nM
CN(CCc1ccc2c(c1)n(C)c(=O)n2C1CCC(=O)NC1=O)CCN(C)C(=O)[C@H]1CC[C@H](NC(=O)[C@@H]2NC3(CCCCC3)[C@@]3(C(=O)Nc4cc(Cl)ccc43)[C@H]2c2cccc(Cl)c2F)CC1 (some centres unmarked) [I-89] = < 10 nM
Cn1c(=O)n(C2CCC(=O)NC2=O)c2ccc(CCCN3CCN(C[C@H]4CC[C@H](NC(=O)[C@@H]5NC6(CCCCC6)[C@@]6(C(=O)Nc7cc(Cl)ccc76)[C@H]5c5cccc(Cl)c5F)CC4)[C@@H](C(=O)NS(C)(=O)=O)C3)cc21 (some centres unmarked) [I-222] = < 10 nM

* * *

measured.target: HiBiT-tagged MDM2 (Homo sapiens)
Construct: expressed in transfected cells
method: MDM2 HiBit HEK293T degradation
Format: cell-based
measurement.setup: HEK293T cells stably expressing C-terminally HiBiT-tagged MDM2; 4 h; read-out: MDM2 HiBit HEK293T degradation 4 h: Average external-Abs DC50
result.type: DC50

Cn1c(=O)n(C2CCC(=O)NC2=O)c2ccc(CCCO[C@@H]3C[C@@H](C(=O)O)N(C[C@H]4CC[C@H](NC(=O)[C@@H]5NC6(CCCCC6)[C@@]6(C(=O)Nc7cc(Cl)ccc76)[C@H]5c5cccc(Cl)c5F)CC4)C3)cc21 (some centres unmarked) [I-198] = 100 to 1000 nM
Cn1c(=O)n(C2CCC(=O)NC2=O)c2ccc(CCCO[C@@H]3C[C@H](C(=O)O)N(C[C@H]4CC[C@H](NC(=O)[C@@H]5NC6(CCCCC6)[C@@]6(C(=O)Nc7cc(Cl)ccc76)[C@H]5c5cccc(Cl)c5F)CC4)C3)cc21 (some centres unmarked) [I-199] = 10 to 100 nM
Cn1c(=O)n(C2CCC(=O)NC2=O)c2ccc(CCCCN3CCN(C[C@H]4CC[C@H](NC(=O)[C@@H]5NC6(CCCCC6)[C@@]6(C(=O)Nc7cc(Cl)ccc76)[C@H]5c5cccc(Cl)c5F)CC4)[C@H](C(=O)O)C3)cc21 (some centres unmarked) [I-213] = < 10 nM
Cn1c(=O)n([C@@H]2CCC(=O)NC2=O)c2ccc(C3CCN(C(=O)[C@H]4CC[C@H](NC(=O)[C@@H]5NC6(CCCCC6)[C@@]6(C(=O)Nc7cc(Cl)ccc76)[C@H]5c5cccc(Cl)c5F)CC4)CC3)cc21 (single isomer, unassigned) [I-104] = < 10 nM
Cc1ncsc1-c1ccc(CNC(=O)[C@@H]2C[C@@H](O)CN2C(=O)[C@@H](NC(=O)C2(F)CC2)C(C)(C)C)c(OCCCC2CCN(C[C@H]3CC[C@H](NC(=O)[C@@H]4NC5(CCCCC5)[C@@]5(C(=O)Nc6cc(Cl)ccc65)[C@H]4c4cccc(Cl)c4F)CC3)CC2)c1 [I-204] = > 1000 nM
Cn1c(=O)n(C2CCC(=O)NC2=O)c2ccc(CCN3CCN(CCCN4CCC(NC(=O)[C@@H]5NC6(CCCCC6)[C@@]6(C(=O)Nc7cc(Cl)ccc76)[C@H]5c5cccc(Cl)c5F)CC4)CC3)cc21 (some centres unmarked) [I-78] = < 10 nM
COc1cc2c(cc1OC(C)C)[C@H](c1ccc(Cl)cc1)N(c1ccc(N(C)CCC3CCN(CCCCC#Cc4cccn5c(N6CCC(=O)NC6=O)cnc45)CC3)cc1)C(=O)C2 [I-22] = > 1000 nM
Cn1c(=O)n(C2CCC(=O)NC2=O)c2ccc(C3CCN(C[C@H]4CC[C@H](NC(=O)[C@@H]5NC6(CCCCC6)[C@@]6(C(=O)Nc7cc(Cl)ccc76)[C@H]5c5cccc(Cl)c5F)CC4)C[C@H]3F)cc21 (some centres unmarked) [I-83] = 10 to 100 nM
COc1cc2c(cc1OC(C)C)[C@H](c1ccc(Cl)cc1)N(c1ccc(N(C)C[C@H]3CC[C@H](N(CC(=O)O)C(=O)CCCCc4ccc5c(c4)n(C)c(=O)n5C4CCC(=O)NC4=O)CC3)cc1)C(=O)C2 (some centres unmarked) [I-93] = 100 to 1000 nM
Cn1c(=O)n(C2CCC(=O)NC2=O)c2ccc(CCCO[C@@H]3C[C@H](C(=O)O)N(C(=O)[C@H]4CC[C@H](NC(=O)[C@@H]5NC6(CCCCC6)[C@@]6(C(=O)Nc7cc(Cl)ccc76)[C@H]5c5cccc(Cl)c5F)CC4)C3)cc21 (some centres unmarked) [I-141] = 100 to 1000 nM
CN1C(C(=O)N[C@H]2CC[C@H](C(=O)N3CCC4(CC3)CN(c3ccc5c(c3)n(C)c(=O)n5C3CCC(=O)NC3=O)C4)CC2)[C@H](c2cccc(Cl)c2F)[C@]2(C(=O)Nc3cc(Cl)ccc32)C12CCCCC2 (some centres unmarked) [I-91] = < 10 nM
C[C@@H]1CN(C(=O)[C@H]2CC[C@H](NC(=O)[C@@H]3NC4(CCCCC4)[C@@]4(C(=O)Nc5cc(Cl)ccc54)[C@H]3c3cccc(Cl)c3F)CC2)CCN1CCc1ccc2c(c1)n(C)c(=O)n2C1CCC(=O)NC1=O (some centres unmarked) [I-122] = < 10 nM
Cn1c(=O)n(C2CCC(=O)NC2=O)c2ccc(CCCCCN3CCN(C[C@H]4CC[C@H](NC(=O)[C@@H]5NC6(CCCCC6)[C@@]6(C(=O)Nc7cc(Cl)ccc76)[C@H]5c5cccc(Cl)c5F)CC4)[C@H](C(=O)O)C3)cc21 (some centres unmarked) [I-211] = < 10 nM
Cc1ncsc1-c1ccc(CNC(=O)[C@@H]2C[C@@H](O)CN2C(=O)[C@@H](NC(=O)CCCCC2CCN(C(=O)[C@H]3CC[C@H](NC(=O)[C@@H]4NC5(CCCCC5)[C@@]5(C(=O)Nc6cc(Cl)ccc65)[C@H]4c4cccc(Cl)c4F)CC3)CC2)C(C)(C)C)cc1 [I-148] = > 1000 nM
Cn1c(=O)n(C2CCC(=O)NC2=O)c2ccc(C3CCN(C(=O)CCCN4CCC(NC(=O)[C@@H]5NC6(CCCCC6)[C@@]6(C(=O)Nc7cc(Cl)ccc76)[C@H]5c5cccc(Cl)c5F)CC4)CC3)cc21 (some centres unmarked) [I-29] = 10 to 100 nM
Cn1c(=O)n(C2CCC(=O)NC2=O)c2ccc(CCCN3CCN(C[C@H]4CC[C@H](NC(=O)[C@@H]5NC6(CCCCC6)[C@@]6(C(=O)Nc7cc(Cl)ccc76)[C@H]5c5cccc(Cl)c5F)CC4)C[C@H]3C(=O)O)cc21 (some centres unmarked) [I-229] = < 10 nM
Cn1c(=O)n(C2CCC(=O)NC2=O)c2ccc(C#CC3CCN(C[C@H]4CC[C@H](NC(=O)[C@@H]5NC6(CCC(C)(C)CC6)[C@@]6(C(=O)Nc7cc(Cl)ccc76)[C@H]5c5ccnc(Cl)c5F)CC4)C(=O)C3)cc21 (some centres unmarked) [I-77] = < 10 nM

* * *

measured.target: HiBiT-tagged MDM2 (Homo sapiens, UniProt Q00987)
Construct: expressed in transfected cells
method: MDM2 HiBit HEK293T degradation
Assay type: cell-based
measurement.setup: HEK293T cells stably expressing C-terminally HiBiT-tagged MDM2; 4 h; read-out: MDM2 HiBit HEK293T degradation 4 h: Average external-Abs DC50
result.type: DC50

COc1cc2c(cc1OC(C)C)[C@H](c1ccc(Cl)cc1)N(c1ccc(N(C)CC3CCN(CCCc4ccc5c(c4)n(C)c(=O)n5C4CCC(=O)NC4=O)CC3)cc1)C(=O)C2 (some centres unmarked) [I-53] = 10 to 100 nM
Cn1c(=O)n(C2CCC(=O)NC2=O)c2ccc(CCCN3CCN(C[C@H]4CC[C@H](NC(=O)[C@@H]5NC6(CCCCC6)[C@@]6(C(=O)Nc7cc(Cl)ccc76)[C@H]5c5cccc(Cl)c5F)CC4)C(P(=O)(O)O)C3)cc21 (some centres unmarked) [I-235] = 10 to 100 nM
CCOc1ccc2c(c1)NC(=O)[C@]21[C@@H](c2cccc(Cl)c2F)[C@H](C(=O)N[C@H]2CC[C@H](CN3CCC(c4ccc5c(c4)n(C)c(=O)n5C4CCC(=O)NC4=O)CC3)CC2)NC12CCCCC2 (some centres unmarked) [I-95] = 100 to 1000 nM
Cn1c(=O)n(C2CCC(=O)NC2=O)c2ccc(C#CC3CCN(C[C@H]4CC[C@H](NC(=O)[C@@H]5NC6(CCCCC6)[C@@]6(C(=O)Nc7cc(Cl)ccc76)[C@H]5c5cccc(Cl)c5F)CC4)C(=O)C3)cc21 (some centres unmarked) [I-46] = < 10 nM
CN1[C@@H](C(=O)N[C@H]2CC[C@H](CN3CCC(c4ccc5c(c4)n(C)c(=O)n5C4CCC(=O)NC4=O)CC3)CC2)[C@H](c2ccnc(Cl)c2F)[C@]2(C(=O)Nc3cc(Cl)ccc32)C12CCC(C)(C)CC2 (some centres unmarked) [I-14] = < 10 nM
Cn1c(=O)n(C2CCC(=O)NC2=O)c2ccc(CCCCCN3CCN(C[C@H]4CC[C@H](NC(=O)[C@@H]5NC6(CCCCC6)[C@@]6(C(=O)Nc7cc(Cl)ccc76)[C@H]5c5cccc(Cl)c5F)CC4)[C@@H](C(=O)O)C3)cc21 (some centres unmarked) [I-212] = < 10 nM
CN1[C@@H](C(=O)Nc2ccc(CN3CCC(c4ccc5c(c4)n(C)c(=O)n5C4CCC(=O)NC4=O)CC3)cc2)[C@H](c2cccc(Cl)c2F)[C@]2(C(=O)Nc3cc(Cl)ccc32)C12CCCCC2 (some centres unmarked) [I-28] = < 10 nM
Cn1c(=O)n(C2CCC(=O)NC2=O)c2ccc(N3CCN(CC4CCN(C(=O)[C@H]5CC[C@H](NC(=O)[C@@H]6NC7(CCCCC7)[C@@]7(C(=O)Nc8cc(Cl)ccc87)[C@H]6c6cccc(Cl)c6F)CC5)CC4)CC3)cc21 (some centres unmarked) [I-15] = < 10 nM
Cn1c(=O)n(C2CCC(=O)NC2=O)c2ccc([C@H]3CC[C@H](N4CCC(NC(=O)[C@@H]5NC6(CCCCC6)[C@@]6(C(=O)Nc7cc(Cl)ccc76)[C@H]5c5cccc(Cl)c5F)CC4)CC3)cc21 (some centres unmarked) [I-138] = < 10 nM
Cn1c(=O)n(C2CCC(=O)NC2=O)c2ccc(N3CCN(C(=O)CN4CCC(NC(=O)[C@@H]5NC6(CCCCC6)[C@@]6(C(=O)Nc7cc(Cl)ccc76)[C@H]5c5cccc(Cl)c5F)CC4)CC3)cc21 (some centres unmarked) [I-125] = < 10 nM
Cn1c(=O)n(C2CCC(=O)NC2=O)c2ccc(CN3CCN(CCN4CCC(NC(=O)[C@@H]5NC6(CCCCC6)[C@@]6(C(=O)Nc7cc(Cl)ccc76)[C@H]5c5cccc(Cl)c5F)CC4)CC3)cc21 (some centres unmarked) [I-167] = 10 to 100 nM
Cn1c(=O)n(C2CCC(=O)NC2=O)c2ccc(C3CCN(C(=O)[C@@H]4CC[C@@H](NC(=O)[C@@H]5NC6(CCCCC6)[C@@]6(C(=O)Nc7cc(Cl)ccc76)[C@H]5c5cccc(Cl)c5F)CO4)CC3)cc21 (some centres unmarked) [I-37] = < 10 nM
Cn1c(=O)n(C2CCC(=O)NC2=O)c2ccc(C3CCN(CCCN4CCC(NC(=O)[C@@H]5NC6(CCCCC6)[C@@]6(C(=O)Nc7cc(Cl)ccc76)[C@H]5c5cccc(Cl)c5F)CC4)CC3)cc21 (some centres unmarked) [I-39] = < 10 nM
CN1[C@@H](C(=O)N[C@H]2CC[C@H](CN3CCC(c4ccc5c(c4)n(C)c(=O)n5C4CCC(=O)NC4=O)CC3)CC2)[C@H](c2cccc(Cl)c2F)[C@]2(C(=O)Nc3cc(Cl)ccc32)C12CCCCC2 (some centres unmarked) [I-17] = < 10 nM
